Target: T1, GFP-9S library array, motif 4 ND N98V;D124Q (synthetic construct, N98V;D124Q)
T1 chain: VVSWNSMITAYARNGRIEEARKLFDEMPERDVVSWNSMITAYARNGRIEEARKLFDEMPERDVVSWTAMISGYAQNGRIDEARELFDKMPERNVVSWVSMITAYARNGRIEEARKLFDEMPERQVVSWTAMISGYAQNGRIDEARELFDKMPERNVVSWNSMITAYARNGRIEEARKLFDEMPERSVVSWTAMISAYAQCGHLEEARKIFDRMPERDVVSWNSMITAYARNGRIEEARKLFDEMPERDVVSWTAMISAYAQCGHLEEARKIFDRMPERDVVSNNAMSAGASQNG
Assay: high-throughput RNA pulldown from lysate on Ni-NTA beads; HRP: 50 mM Tris pH 8, 150 mM NaCl, 1 mM beta-mercaptoethanol, 50 ug/ml BSA, 3 ug/ml yeast RNA, 0.5% heparin; ITC and FP: Tris pH 8, 200 mM KCl, 5% glycerol; MST: 50 mM Tris pH 8, 200 mM NaCl, 1 mM DTT, BSA, heparin, 0.05% Tween 20
Conditions: tags: N-terminal His-eGFP; label: 5' Cy5

{"BINDER": "AUUACACGUGA (ssRNA) [Cy5-rpoA]", "UNIT_OF_MEASUREMENT": "nM", "Kd": 144}
{"BINDER": "AUUAGACGUGA (ssRNA) [Cy5-rpoA-G]", "UNIT_OF_MEASUREMENT": "nM", "Kd": 126}

Where do the numbers come from? From paper PMC8809517.
